Where do the numbers come from? From ChEMBL document CHEMBL1201862.

tested on: Streptococcus sp. 'group A'; assay: growth inhibition of control SK(-) GAS strain, dose response, counter-screen for streptokinase expression inhibitor project, luminescence, kanamycin, BacTiterGlo, confirmation (AID 1900); assay type: functional, organism-based
Calls of active or inactive are those of the source. No stated cut-off is given here; in the data, actives have a measured EC50 and inactives only a lower limit.
reported endpoint: EC50

compound=O=C(O)CN1C(=O)/C(=C\c2cc(Br)ccc2OCc2ccccc2Cl)SC1=S target="Streptococcus sp. 'group A'" meas_value="1.97 µM (active)"
compound=CCOc1ccc2c(c1)C(=NNC(=O)c1ccncc1)c1cc(OCC)ccc1-2 target="Streptococcus sp. 'group A'" meas_value="0.894 µM (active)"
compound=CCOC(=O)c1c(C)[nH]c(C(=O)N/N=C/c2cc([N+](=O)[O-])ccc2O)c1C target="Streptococcus sp. 'group A'" meas_value="2.33 µM (active)"
compound=CCOc1ccccc1C(=O)OCC(=O)Nc1nnc(-c2ccccc2)o1 target="Streptococcus sp. 'group A'" meas_value="4.56 µM (active)"
compound=CCCCNC(=O)c1onc(CSc2ccc(C(C)C)cc2)c1C(=O)O target="Streptococcus sp. 'group A'" meas_value="3.81 µM (active)"
compound=COc1cccc(/C=N/Nc2cc(C)nc(-c3ccccc3O)n2)c1O target="Streptococcus sp. 'group A'" meas_value="0.876 µM (active)"
compound="O=C(CSc1nnc(NC(=O)c2cccc(F)c2)s1)NCC1CCCO1 (stereo not given)" target="Streptococcus sp. 'group A'" meas_value="> 150 µM (not active)"
compound=CCOC(=O)c1c(-c2ccc(C)o2)csc1NC(=O)COC(=O)c1ccc(NC(N)=O)cc1 target="Streptococcus sp. 'group A'" meas_value="1.75 µM (active)"
compound=CCn1cc(CN2CCC(n3nccc3NC(=O)Cc3ccccc3)CC2)cn1 target="Streptococcus sp. 'group A'" meas_value="> 150 µM (not active)"
compound=Cc1ccc(-c2nc3cc(NS(=O)(=O)c4ccc(C)cc4)ccc3o2)cc1 target="Streptococcus sp. 'group A'" meas_value="5.82 µM (active)"
